# CONDITIONS: in water, 325.15 K
READOUT_KIND: solubility (mole fraction)
Answer as a number with no unit attached.

Notebook: O=C(O)CCCCCCC(=O)O , solubility (mole fraction) read as 0.00107

----------
# CONDITIONS: in ethyl acetate, 317.75 K
READOUT_KIND: solubility (mole fraction)
// print number alone

Recorded result, O=C(O)CCCCCCC(=O)O , solubility (mole fraction): 0.00902

----------
# CONDITIONS: in acetone, 296.85 K
READOUT_KIND: solubility (mole fraction)
Answer with a number only.

Entry O=C(O)CCCCCCC(=O)O — recorded solubility (mole fraction) = 0.0115

----------
# CONDITIONS: in THF, 331.95 K
READOUT_KIND: solubility (mole fraction)
Enter the number alone.

# solubility (mole fraction) (molecule: O=C(O)CCCCCCC(=O)O ) is 0.141

----------
# CONDITIONS: in isopropanol, 289.95 K
READOUT_KIND: solubility (mole fraction)
Give your answer as a number; write no unit.

// field: solubility (mole fraction); key: O=C(O)CCCCCCC(=O)O ; value = 0.0198

----------
# CONDITIONS: in water, 290.25 K
READOUT_KIND: solubility (mole fraction)

Recorded result, O=C(O)CCCCCCC(=O)O , solubility (mole fraction): 0.000131

----------
# CONDITIONS: in n-propanol, 289.85 K
READOUT_KIND: solubility (mole fraction)
// no unit string in output, number only

Reported solubility (mole fraction) ( O=C(O)CCCCCCC(=O)O ) = 0.017

----------
# CONDITIONS: in methanol, 290.35 K
READOUT_KIND: solubility (mole fraction)
Keep the answer to the number alone.

The compound listed as O=C(O)CCCCCCC(=O)O has a reported solubility (mole fraction) of 0.0242

----------
# CONDITIONS: in ethyl acetate, 283.15 K
READOUT_KIND: solubility (mole fraction)
Could you keep your reply to the number by itself?

What the record says about O=C(O)CCCCCCC(=O)O : solubility (mole fraction) is 0.00167

----------
# CONDITIONS: in ethyl acetate, 331.75 K
READOUT_KIND: solubility (mole fraction)

Record O=C(O)CCCCCCC(=O)O . Reported solubility (mole fraction): 0.0186

----------
# CONDITIONS: in methanol, 324.85 K
READOUT_KIND: solubility (mole fraction)
Lab note: jot the number down without any unit.

Entry O=C(O)CCCCCCC(=O)O — recorded solubility (mole fraction) = 0.0951

----------
# CONDITIONS: in n-propanol, 296.75 K
READOUT_KIND: solubility (mole fraction)
Format: numeric value only, no unit, no commentary.

Lab book: solubility (mole fraction) of O=C(O)CCCCCCC(=O)O noted as 0.0233

----------
# CONDITIONS: in water, 310.85 K
READOUT_KIND: solubility (mole fraction)
Just the number, please, no unit after it.

The compound O=C(O)CCCCCCC(=O)O showed solubility (mole fraction) equal to 0.000439

----------
# CONDITIONS: in n-propanol, 310.75 K
READOUT_KIND: solubility (mole fraction)
Output: the number by itself.

Kindly note the recorded solubility (mole fraction) for O=C(O)CCCCCCC(=O)O , which is 0.0422

----------
# CONDITIONS: in isopropanol, 310.95 K
READOUT_KIND: solubility (mole fraction)
Write the value as a bare number.

The compound listed as O=C(O)CCCCCCC(=O)O shows solubility (mole fraction) equal to 0.0486

----------
# CONDITIONS: in methanol, 317.85 K
READOUT_KIND: solubility (mole fraction)
Please give only the number in your answer, with no unit.

Consider O=C(O)CCCCCCC(=O)O . Its measured solubility (mole fraction) is 0.0748

----------
# CONDITIONS: in methanol, 303.85 K
READOUT_KIND: solubility (mole fraction)

So, O=C(O)CCCCCCC(=O)O ? Its solubility (mole fraction) was 0.0443

----------
# CONDITIONS: in methanol, 283.25 K
READOUT_KIND: solubility (mole fraction)
Please respond with just the number, no unit label.

Kindly note the recorded solubility (mole fraction) for O=C(O)CCCCCCC(=O)O , which is 0.0179

----------
# CONDITIONS: in ethanol, 283.25 K
READOUT_KIND: solubility (mole fraction)
Could you respond with only the numeric value?

Briefly, solubility (mole fraction) measured for O=C(O)CCCCCCC(=O)O : 0.0158

----------
# CONDITIONS: in water, 318.15 K
READOUT_KIND: solubility (mole fraction)
// response body must contain only the number

Consider O=C(O)CCCCCCC(=O)O . Its measured solubility (mole fraction) is 0.000662

----------
# CONDITIONS: in n-propanol, 303.85 K
READOUT_KIND: solubility (mole fraction)
Response field accepts a number only; no unit should be typed.

Recorded result, O=C(O)CCCCCCC(=O)O , solubility (mole fraction): 0.0308

----------
# CONDITIONS: in ethyl acetate, 324.85 K
READOUT_KIND: solubility (mole fraction)
Could you respond with only the numeric value?

Entry under test: O=C(O)CCCCCCC(=O)O . Its solubility (mole fraction) was 0.0125

----------
# CONDITIONS: in THF, 303.75 K
READOUT_KIND: solubility (mole fraction)

Consider O=C(O)CCCCCCC(=O)O . Its measured solubility (mole fraction) is 0.0665

----------
# CONDITIONS: in ethanol, 297.05 K
READOUT_KIND: solubility (mole fraction)
Reply briefly: the number, and no unit.

Notebook: O=C(O)CCCCCCC(=O)O , solubility (mole fraction) read as 0.0281

----------
# CONDITIONS: in n-propanol, 317.75 K
READOUT_KIND: solubility (mole fraction)
Please respond with just the number, no unit label.

Per the records, this compound ( O=C(O)CCCCCCC(=O)O ) has solubility (mole fraction) equal to 0.0559

----------
# CONDITIONS: in THF, 317.95 K
READOUT_KIND: solubility (mole fraction)
Just the number.

The molecule listed as O=C(O)CCCCCCC(=O)O shows solubility (mole fraction) equal to 0.0982

----------
# CONDITIONS: in water, 303.85 K
READOUT_KIND: solubility (mole fraction)
The answer should be written as a number, with no unit following it.

response.value for O=C(O)CCCCCCC(=O)O (field: solubility (mole fraction)) = 0.000291

----------
# CONDITIONS: in methanol, 297.05 K
READOUT_KIND: solubility (mole fraction)
// print number alone

solubility (mole fraction) reading for O=C(O)CCCCCCC(=O)O : 0.0322

----------
# CONDITIONS: in THF, 283.15 K
READOUT_KIND: solubility (mole fraction)
Output spec: single numeric token, no unit.

Recorded solubility (mole fraction) (compound O=C(O)CCCCCCC(=O)O ): 0.0356

----------
# CONDITIONS: in acetone, 322.75 K
READOUT_KIND: solubility (mole fraction)
# output: bare number, no unit

The measured solubility (mole fraction) associated with O=C(O)CCCCCCC(=O)O reads 0.035

----------
# CONDITIONS: in isopropanol, 324.75 K
READOUT_KIND: solubility (mole fraction)
Respond with the number and no other words.

Looking up O=C(O)CCCCCCC(=O)O , I see its solubility (mole fraction) listed as 0.0816

----------
# CONDITIONS: in ethanol, 290.35 K
READOUT_KIND: solubility (mole fraction)
Answer using only a numeral; do not append any unit.

The compound listed as O=C(O)CCCCCCC(=O)O has a reported solubility (mole fraction) of 0.021
